Data origin, for the record: patent US20250019422A1

Recorded measurements of pKd, one per entry
molecular target: wt_RBD-AviHis (SARS-CoV-2 (original Wuhan strain)); experiment: BLI (Octet), biotinylated RBD on streptavidin biosensors, VHH in solution
Convention used: pKd is expressed as -log10 of the molar concentration.

Re31A12 (VHH) VHH: QVQLVESGGGLVQSGGSLRLSCLTSGVTLDYYAIGWFRQAPGKEREGVSCTSSSDGSTNYSDSVKGRFIISRDNAKNTVYLQMNSLKPEDTAVYYCAVTPATYYGGRYYFQCPYHDMHYWGKGTLVTVSS ... 9.92
Re32G01 (VHH) VHH: QVQLVESGGGLVQPGGSLRLSCETSGITLDYYAIGWFLQAPGKDREGVACMRNWDGSTLYAPSVKGRFTISRDADKEVAYLEMNSLKSEDTGVYYCAAGPLPPGHSCRIPTPLGYDDWGQGTQVTVSS ... 10.80

Attention now shifts to the item below.
Task: Which pKd value is on record for Re31A08 (VHH) VHH: QVQLVESGGGLVQPGGSLRLSCAASGITLDYYSIGWFRQAPGKEREGVSCTSSRDDSTDYADSVKGRFTISRDNAKNSVYLQMNSLNPEDTAVYYCALTPATYYSGRYYFQCPPHGMDYWGKGTLVTVSS ?
Output: 10.22
